Below are compounds with their IC50 as measured on UniProt:O14744.
Sequence (O14744 whole entry): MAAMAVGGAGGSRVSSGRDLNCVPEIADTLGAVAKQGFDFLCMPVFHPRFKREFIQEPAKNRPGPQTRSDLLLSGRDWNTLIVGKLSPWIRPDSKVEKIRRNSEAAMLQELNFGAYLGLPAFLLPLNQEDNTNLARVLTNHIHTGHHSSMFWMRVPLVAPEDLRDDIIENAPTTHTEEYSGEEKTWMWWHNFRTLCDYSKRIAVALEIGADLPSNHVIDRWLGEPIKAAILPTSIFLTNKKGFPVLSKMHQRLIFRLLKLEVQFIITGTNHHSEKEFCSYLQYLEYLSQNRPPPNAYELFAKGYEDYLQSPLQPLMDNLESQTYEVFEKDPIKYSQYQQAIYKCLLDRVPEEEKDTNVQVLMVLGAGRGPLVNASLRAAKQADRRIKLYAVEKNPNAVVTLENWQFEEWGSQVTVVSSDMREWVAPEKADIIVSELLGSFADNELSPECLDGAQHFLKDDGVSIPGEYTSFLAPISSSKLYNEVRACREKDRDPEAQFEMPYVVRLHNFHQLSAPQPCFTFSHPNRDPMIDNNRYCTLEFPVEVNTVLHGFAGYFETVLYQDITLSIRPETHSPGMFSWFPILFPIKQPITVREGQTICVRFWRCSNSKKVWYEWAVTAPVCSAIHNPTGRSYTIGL
Sequence (Q9BQA1 whole entry partner): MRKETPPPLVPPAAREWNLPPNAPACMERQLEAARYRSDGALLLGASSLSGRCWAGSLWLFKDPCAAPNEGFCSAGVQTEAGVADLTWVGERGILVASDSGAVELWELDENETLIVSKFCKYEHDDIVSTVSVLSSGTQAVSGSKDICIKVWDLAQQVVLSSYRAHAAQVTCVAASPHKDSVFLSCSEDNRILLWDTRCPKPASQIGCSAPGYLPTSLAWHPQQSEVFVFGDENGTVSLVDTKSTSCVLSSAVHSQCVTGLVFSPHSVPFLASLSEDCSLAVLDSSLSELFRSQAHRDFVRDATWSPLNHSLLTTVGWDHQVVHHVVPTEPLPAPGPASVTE
Your answer should be a plain number; it is taken to be in nM.

The examples below pair each entry with its known result.
CON=C(CC(C)C)C(=O)N1CCC(Nc2cc(C(=O)NC[C@H](O)CN3CCc4ccccc4C3)ncn2)CC1 [PR-5]; 23
O=C(NC[C@H](O)CN1CCc2ccccc2C1)c1cc(NC2CCN(C(=O)C(=NO)C3CC3)CC2)ncn1 [PR-1]; 13

Req: Quick check: IC50 on UniProt:O14744, item O=C(NC1CC2(C1)CC(Nc1cc(C(=O)NC[C@H](O)CN3CCc4ccccc4C3)ncn1)C2)C(=NO)C1CC1 (some centres unmarked) [PR-6] ?
Resp: 16

Req: Give UniProt:O14744 IC50 for CON=C(C)C(=O)N1CCC2(CC1)CC(Nc1cc(C(=O)NC[C@H](O)CN3CCc4ccccc4C3)ncn1)C2 [PR-13]
Resp: 16

Req: Enter reported IC50 observed with UniProt:O14744 for CON=C(C)C(=O)N1CC2(CC(Nc3cc(C(=O)NC[C@H](O)CN4CCc5ccccc5C4)ncn3)C2)C1 [PR-10]
Resp: 16

---

Test: Pharmacokinetic experiment in SD rats
Settings: male, rat, plasma, po, 25 mg/kg
Measured Tmax, listed per entry.
Quick note: give the figure in min, leave out the unit.

Observe how each entry below is paired with its result.
CON=C(C(=O)NC1CC2(C1)CC(Nc1cc(C(=O)NC[C@H](O)CN3CCc4ccccc4C3)ncn1)C2)C1CC1 (stereo partly shown) [PR-7]; 40
CON=C(C(=O)N1CCC(Nc2cc(C(=O)NC[C@H](O)CN3CCc4ccccc4C3)ncn2)CC1)C1CC1 [PR-2]; 30
CON=C(C)C(=O)NC1CC2(C1)CC(Nc1cc(C(=O)NC[C@H](O)CN3CCc4ccccc4C3)ncn1)C2 (stereo partly shown) [PR-9]; 30

Consider the additional molecule presented here.
Req: # input molecule: CON=C(CC(C)C)C(=O)N1CCC(Nc2cc(C(=O)NC[C@H](O)CN3CCc4ccccc4C3)ncn2)CC1 [PR-5] ; wanted: its Tmax
Resp: 20

---

Assay: Pharmacokinetic experiment in SD rats
Details: male, rat, plasma, po, 25 mg/kg
ENDPOINT_LABEL: Cmax (ng/mL)
Provide only the numeric value, understood in ng/mL.

CON=C(CC(C)C)C(=O)N1CCC(Nc2cc(C(=O)NC[C@H](O)CN3CCc4ccccc4C3)ncn2)CC1; 660
CON=C(C(=O)NC1CC2(C1)CC(Nc1cc(C(=O)NC[C@H](O)CN3CCc4ccccc4C3)ncn1)C2)C1CC1 (stereo partly shown); 1120
CON=C(C(=O)N1CCC(Nc2cc(C(=O)NC[C@H](O)CN3CCc4ccccc4C3)ncn2)CC1)C1CC1; 473

Req: Param item = CON=C(C)C(=O)NC1CC2(C1)CC(Nc1cc(C(=O)NC[C@H](O)CN3CCc4ccccc4C3)ncn1)C2 (stereo partly shown) ; retrieve measured Cmax.
Resp: 875

---

Each entry below carries its reported AUC(0-t).
Assay: Pharmacokinetic experiment in SD rats
Details: male, rat, plasma, po, 25 mg/kg
Numbers only here, please. The scale is ng·h/mL.

Take a look at these entries with their results.
CON=C(C)C(=O)NC1CC2(C1)CC(Nc1cc(C(=O)NC[C@H](O)CN3CCc4ccccc4C3)ncn1)C2 (stereo partly shown); 1270
CON=C(C(=O)N1CCC(Nc2cc(C(=O)NC[C@H](O)CN3CCc4ccccc4C3)ncn2)CC1)C1CC1; 821
CON=C(C(=O)NC1CC2(C1)CC(Nc1cc(C(=O)NC[C@H](O)CN3CCc4ccccc4C3)ncn1)C2)C1CC1 (stereo partly shown); 2540

Then there is this molecule:
Req: Look up AUC(0-t) for this molecule: CON=C(CC(C)C)C(=O)N1CCC(Nc2cc(C(=O)NC[C@H](O)CN3CCc4ccccc4C3)ncn2)CC1
Resp: 674
